# credit: the RNAGym collection of RNA variant scans (doi:10.7554/elife.90254)

self-cleavage for assorted variants
B1: OR4K15 (parent)
chain: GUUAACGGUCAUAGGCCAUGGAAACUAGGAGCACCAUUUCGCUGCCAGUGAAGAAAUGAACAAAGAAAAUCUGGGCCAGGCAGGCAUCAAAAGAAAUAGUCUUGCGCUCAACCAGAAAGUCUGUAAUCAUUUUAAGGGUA

Variants of: B1
Assay: self-cleavage, relative activity (ratio to wild type); higher = more cleavage; in vitro, sequencing; the parent is a self-cleaving ribozyme
Note: the reply should be a number with no unit written.

Solved entries:
variant: A52G U87C
self-cleavage: 1.35
--
variant: C40U A68G
self-cleavage: 1.84
--
variant: C46U U87C
self-cleavage: 1.68
--
variant: G1C A111G
self-cleavage: 0.01

U19C A114G yielded self-cleavage of 0.39

So, G21U U108C ? Its self-cleavage was 0.02

// self-cleavage lookup, variant = U2A A114U , result: 0.33

The variant listed as A66G A111G has a reported self-cleavage of 0.02

Data point: A69U U108C ; self-cleavage = 0.02

Lookup result for G15C A111U ; measured self-cleavage: 0.11

self-cleavage in this record for U26A U100A : 0.98

Note to self: self-cleavage recorded for G75C A98G was 0.07

Entry A36C U49C , self-cleavage reported as 1.28

response.value for U26C A27G (field: self-cleavage) = 0.75

So for U3C A91U , the logged self-cleavage turned out to be 1.11

Noted for U3C A91C : its self-cleavage reads 0.84
